# measuredOn: P. falciparum apicoplast DNA polymerase (Pf-apPOL) (Plasmodium falciparum, UniProt Q8ILY1)
# Sequence (Q8ILY1 entry or part of it): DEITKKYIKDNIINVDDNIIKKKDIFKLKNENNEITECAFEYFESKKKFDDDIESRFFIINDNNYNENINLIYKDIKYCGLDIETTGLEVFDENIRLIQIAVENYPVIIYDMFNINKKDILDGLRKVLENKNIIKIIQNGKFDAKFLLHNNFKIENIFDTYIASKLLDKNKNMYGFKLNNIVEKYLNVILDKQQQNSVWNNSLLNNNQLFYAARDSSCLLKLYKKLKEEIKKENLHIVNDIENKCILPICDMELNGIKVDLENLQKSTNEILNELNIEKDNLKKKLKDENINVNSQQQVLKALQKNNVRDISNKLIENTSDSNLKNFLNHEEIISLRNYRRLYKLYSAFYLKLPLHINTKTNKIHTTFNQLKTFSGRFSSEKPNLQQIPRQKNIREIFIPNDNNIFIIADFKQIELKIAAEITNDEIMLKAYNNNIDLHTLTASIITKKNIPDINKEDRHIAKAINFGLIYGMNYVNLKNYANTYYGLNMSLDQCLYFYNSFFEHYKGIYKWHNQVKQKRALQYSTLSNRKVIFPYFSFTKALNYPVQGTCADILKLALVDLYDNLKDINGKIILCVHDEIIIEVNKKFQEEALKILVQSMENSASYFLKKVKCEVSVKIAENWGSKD
# testProtocol: Fluorescence-based high-throughput DNA polymerase assay (molecular beacon), primary screen and dose-response
# Format: biochemical
# conditionsUsed: DRC-1; 10'; concentration 40
Lab note: class by % inhibition Apo pol 10', see Low: < 70%; Mid: ≥ 70% and < 80%; High: ≥ 80%

The examples below pair each entry with its known result.
O=c1cc(-c2ccccc2Cl)oc2c(NS(=O)(=O)c3cc(Cl)cc(Cl)c3O)ccc(O)c12 ... Mid
O=C(Nc1cccc(Cl)c1)Nc1nnc(-c2ccncc2)s1 ... High
CC(=O)Nc1cc(C(=O)NC(C)C)c2ccc(C)nc2c1 ... Mid
Cc1nc(/N=N/c2ccc(C(=O)[O-])cc2)c(COP(=O)([O-])[O-])c(C=O)c1O.[Na+].[Na+].[Na+] ... High
O=C(Nc1ccc2c(c1)Cc1cc(NC(=O)c3ccco3)ccc1-2)c1ccco1 ... Mid
O=C(NNC(=O)c1ccc(Cl)cc1)C(=O)NNC(=O)c1ccc(Cl)cc1 ... Low
Oc1cccc2ccc(/C=C/c3ccc4c(c3)OCO4)nc12 ... High
O=[N+]([O-])c1ccc(/C=C/c2ccc3ccccc3n2)o1 ... Low

Next up:
Task item: Which category does the recorded % inhibition Apo pol 10' put COc1ccc(-c2cc(=O)c3cc(O)ccc3o2)cc1OC in?
Reply: Low

----------
# measuredOn: UniProtKB Q8ILY1
# testProtocol: Fluorescence-based high-throughput DNA polymerase assay (molecular beacon), primary screen and dose-response
# Assay type: biochemical
# conditionsUsed: DRC-2; concentration 80; 180'
experimentalEndpoint: % inhibition apPOL 180' (%)
Please state the figure in %; there is no need to write the unit.

Completed entries (count: 6):
O=C1c2ccccc2C(=O)c2c1oc1c3c(ccc21)OCN(C1CCCC1)C3 ... 70
O=C(Nc1c2c(nn1-c1ccccc1)CSC2)c1ccco1 ... 78
Cc1ccnc(NS(=O)(=O)c2ccc(-n3cccc3)cc2)n1 ... 76
Cc1cc(C)nc(Nc2nc(CC(=O)Nc3nc(-c4ccco4)cs3)cs2)n1 ... 73
O=C(O)c1nc(-c2ccccc2)nc2c1OCO2 ... 82
COc1ccc(NC(=O)Cn2nc3c(cc2=O)CCC3)cc1Cl ... 76

# next compound below
Task item: Param readout = % inhibition apPOL 180'; param system = UniProtKB Q8ILY1; param query = Oc1cccnc1/N=C/c1cc(I)cc(I)c1O ; response: value
Reply: 77

----------
# measuredOn: P. falciparum apicoplast DNA polymerase (Pf-apPOL) (Plasmodium falciparum, UniProt Q8ILY1)
# testProtocol: Fluorescence-based high-throughput DNA polymerase assay (molecular beacon), primary screen and dose-response
# Format: biochemical
# conditionsUsed: DRC-1; 10'; concentration 5
Each entry below carries its recorded % inhibition Apo pol 10'.
Please state the figure in %; there is no need to write the unit.

Task item: What does the record list as % inhibition Apo pol 10' for CCCCSc1nnc2c(n1)OC(c1ccc([N+](=O)[O-])o1)Nc1ccccc1-2 (stereo not drawn) ?
Reply: 28.8752

----------
# measuredOn: P. falciparum apicoplast DNA polymerase (Pf-apPOL) (Plasmodium falciparum, UniProt Q8ILY1)
# testProtocol: Fluorescence-based high-throughput DNA polymerase assay (molecular beacon), primary screen and dose-response;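 on % inhibition apPOL 180': test concentration in µM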
# Type: biochemical
# conditionsUsed: DRC-1; 180'; concentration 5
experimentalEndpoint: % inhibition apPOL 180' (%)
Please state the figure in %; there is no need to write the unit.

O=C(CSc1nc2ccccc2s1)Nc1ncc([N+](=O)[O-])s1 ... -0.1201

Task item: Param readout = % inhibition apPOL 180'; param system = P. falciparum apicoplast DNA polymerase (Pf-apPOL) (Plasmodium falciparum, UniProt Q8ILY1); param query = COc1ccc(C)cc1NC(=O)Cn1ccc2c(=O)[nH]ccc21 [Molecule 15, COc1ccc(cc1NC(=O)Cn1ccc2c1cc[nH]c2=O)C] ; response: value
Reply: 6.847

Task item: Param readout = % inhibition apPOL 180'; param system = P. falciparum apicoplast DNA polymerase (Pf-apPOL) (Plasmodium falciparum, UniProt Q8ILY1); param query = O=C1NCCCn2cc(S(=O)(=O)Nc3ccccc3)cc21 ; response: value
Reply: -5.597

Task item: Param readout = % inhibition apPOL 180'; param system = P. falciparum apicoplast DNA polymerase (Pf-apPOL) (Plasmodium falciparum, UniProt Q8ILY1); param query = CC(=O)c1cc2c(N)c(/C(N)=N/C#N)sc2nc1C ; response: value
Reply: -5.477

----------
# measuredOn: P. falciparum apicoplast DNA polymerase (Pf-apPOL) (Plasmodium falciparum, UniProt Q8ILY1)
# testProtocol: Fluorescence-based high-throughput DNA polymerase assay (molecular beacon), primary screen and dose-response;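 on % inhibition Apol 40': compound concentration given in µM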
# Assay type: biochemical
# conditionsUsed: DRC-2; 40'; concentration 20
Each entry below carries its recorded % inhibition Apol 40'.
Please state the figure in %; there is no need to write the unit.

Completed entries (count: 6):
CC(=O)Nc1cc(C(=O)NC(C)C)c2ccc(C)nc2c1 ... 51
O=C(NNC(=O)c1ccc(Cl)cc1)C(=O)NNC(=O)c1ccc(Cl)cc1 ... 54
Cc1ccc(C)c(CSc2nc(C3CCCCC3)c(C#N)c(=O)[nH]2)c1 ... 69
O=C(c1c[nH]c2ncccc12)N1CCCC1 [Molecule 63, O=C(c1c[nH]c2c1cccn2)N1CCCC1] ... 50
O=C(Cc1cc(=O)[nH]c(SCc2ccccc2)n1)Nc1ccc2c(c1)OCO2 ... 47
O=C(Nc1ccc2c(c1)Cc1cc(NC(=O)c3ccco3)ccc1-2)c1ccco1 ... 52

Task item: What does the record list as % inhibition Apol 40' for O=C(O)CCS(=O)(=O)c1ccc(-c2ccc(S(=O)(=O)CCC(=O)O)cc2)cc1 ?
Reply: 40

Task item: What does the record list as % inhibition Apol 40' for CCCCOC(=O)CCCCCN1C(=O)C(=Cc2ccc(OC)cc2)SC1=S ?
Reply: 42

----------
Each entry below carries its recorded % inhibition apPOL 180'.
# measuredOn: UniProtKB Q8ILY1
# testProtocol: Fluorescence-based high-throughput DNA polymerase assay (molecular beacon), primary screen and dose-response
# Format: biochemical
# conditionsUsed: DRC-1; concentration 10; 180'

COc1ccc(C=C2Oc3c(ccc4c3CN(Cc3ccco3)CO4)C2=O)c(OC)c1 ... 48.7066%
CCOc1ccc2cc(C3=NN(C(=O)CCC(=O)O)C(c4ccc(C)cc4)C3)c(=O)[nH]c2c1 (stereo not shown) ... -3.315%

Task item: What does the record list as % inhibition apPOL 180' for Oc1cccnc1/N=C/c1cc(I)cc(I)c1O ?
Reply: 22.0989%

Task item: What does the record list as % inhibition apPOL 180' for O=C(O)c1cc([N+](=O)[O-])c(N2CCN(c3cccc(C(F)(F)F)c3)CC2)c([N+](=O)[O-])c1 ?
Reply: 7.5333%

----------
# measuredOn: P. falciparum apicoplast DNA polymerase (Pf-apPOL) (Plasmodium falciparum)
# testProtocol: Fluorescence-based high-throughput DNA polymerase assay (molecular beacon), primary screen and dose-response
# Type: biochemical
# conditionsUsed: DRC-2; 40'; concentration 40
experimentalEndpoint: % inhibition Apol 40' (%)
Please state the figure in %; there is no need to write the unit.

Completed entries (count: 6):
NS(=O)(=O)c1ccc(NC(=O)c2ccc(N3C(=O)CCC3=O)cc2)cc1 [KU0025331] ... 67
O=C1C(=Cc2ccccc2O)Oc2ccc(O)cc21 [KU0196475] ... 54
Cc1cc(C)c(O)c(/N=C/c2cc([N+](=O)[O-])cc(Br)c2O)c1 [KU0046272] ... 47
CCOC(=O)C1=C2c3cc(OC)c(OC)cc3CC(C)(C)N2C(=O)C1=O [KU0193659] ... 57
O=[N+]([O-])/C=C/c1ccc(-c2ccc(Br)cc2)o1 [Molecule 31, O=N(=O)/C=C/c1ccc(o1)c1ccc(cc1)Br] ... 54
CCCCCCCCCCCC1SCC(C(=O)O)N1C(C)=O (stereo not shown) [Molecule 72] ... 65

Task item: What does the record list as % inhibition Apol 40' for Cn1nc(-c2nnc(-c3ccccc3F)o2)c2c1CCN(C(=O)c1ccccc1Cl)C2 [Molecule 34] ?
Reply: 49

Task item: What does the record list as % inhibition Apol 40' for O=C(Cn1ccc2c(=O)[nH]ccc21)Nc1ccc(Cl)cc1 [Molecule 36, O=C(Cn1ccc2c1cc[nH]c2=O)Nc1ccc(cc1)Cl] ?
Reply: 63

Task item: What does the record list as % inhibition Apol 40' for O=C(CSc1nnc(-c2ccncc2)[nH]1)c1ccc(O)c(O)c1 [Molecule 89] ?
Reply: 76

----------
# measuredOn: P. falciparum apicoplast DNA polymerase (Pf-apPOL) (Plasmodium falciparum, UniProt Q8ILY1)
# testProtocol: Fluorescence-based high-throughput DNA polymerase assay (molecular beacon), primary screen and dose-response;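 on % inhibition Apol 40': compound concentration given in µM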
# Format: biochemical
# conditionsUsed: DRC-2; 40'; conc 20
experimentalEndpoint: % inhibition Apol 40' (%)
Please state the figure in %; there is no need to write the unit.

Completed entries (count: 3):
COC(=O)c1sc(-c2ccc(C(C)(C)C)cc2)cc1NC(=O)CCC(=O)O [Molecule 87] ... 61
COc1ccccc1C1CC(=O)Oc2cc3c(cc21)OCO3 (stereo not shown) [KU0104502] ... 62
Cc1cccc(NC(=O)Cn2ccc3c(=O)[nH]ccc32)c1C [Molecule 11, O=C(Cn1ccc2c1cc[nH]c2=O)Nc1cccc(c1C)C] ... 67

Task item: What does the record list as % inhibition Apol 40' for O=C(O)c1ccc(COc2cc([N+](=O)[O-])cc3cccnc23)cc1 [KU0058403] ?
Reply: 39
